# targetSystem: UniProt:P30542
# Sequence (P30542 whole entry): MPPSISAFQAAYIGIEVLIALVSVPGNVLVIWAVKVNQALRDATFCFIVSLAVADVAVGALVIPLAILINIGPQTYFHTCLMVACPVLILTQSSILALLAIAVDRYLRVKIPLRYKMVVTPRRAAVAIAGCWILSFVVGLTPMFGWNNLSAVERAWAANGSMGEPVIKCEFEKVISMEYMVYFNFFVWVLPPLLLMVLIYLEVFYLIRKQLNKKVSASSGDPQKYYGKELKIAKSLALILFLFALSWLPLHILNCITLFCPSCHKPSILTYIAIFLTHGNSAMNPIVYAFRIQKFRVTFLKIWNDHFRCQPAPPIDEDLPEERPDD
# assay: Displacement of [3H]CCPA from human adenosine A1 receptor expressed in CHO cells
# Assay type: cell-based
readoutKind: Ki (nM)

compound=C#CCn1c(=O)c2c(nc3n2CCCN3Cc2ccccc2OC)n(C)c1=O valueunit=nM comparisonsymbol== measurement=605
compound=CCn1c(=O)c2c(nc3n2CCCN3C2CCCCC2)n(CC)c1=O valueunit=nM comparisonsymbol== measurement=1040
compound="C#CCn1c(=O)c2c(nc3n2CCCN3CC2CCCO2)n(C)c1=O (centres undefined)" valueunit=nM comparisonsymbol== measurement=1150
compound=C#CCn1c(=O)c2c(nc3n2CCCN3c2ccc(F)cc2)n(C)c1=O valueunit=nM comparisonsymbol== measurement=3610
compound=C#CCn1c(=O)c2c(nc3n2CCCN3Cc2cccs2)n(C)c1=O valueunit=nM comparisonsymbol== measurement=410
compound=Cn1c(=O)c2c(nc3n2CCCN3Cc2cccc(Cl)c2)n(C)c1=O valueunit=nM comparisonsymbol=> measurement=10000
compound=C#CCn1c(=O)c2c(nc3n2CCCN3C2CCCCC2)n(C)c1=O valueunit=nM comparisonsymbol== measurement=2360
compound=C#CCn1c(=O)c2c(nc3n2CCCN3Cc2cccc(OC)c2)n(C)c1=O valueunit=nM comparisonsymbol== measurement=1330
compound=C#CCn1c(=O)c2c(nc3n2CCCN3Cc2ccccc2)n(C)c1=O valueunit=nM comparisonsymbol== measurement=249
compound=C#CCn1c(=O)c2c(nc3n2CCCN3c2cccc(OC)c2)n(C)c1=O valueunit=nM comparisonsymbol== measurement=9490
compound=C#CCn1c(=O)c2c(nc3n2CCCN3c2cc(OC)cc(OC)c2)n(C)c1=O valueunit=nM comparisonsymbol== measurement=9650
compound=C#CCn1c(=O)c2c(nc3n2CCCN3CCc2ccc(O)cc2)n(C)c1=O valueunit=nM comparisonsymbol== measurement=8260
compound=Cn1c(=O)c2c(nc3n2CCCN3Cc2ccc(Cl)cc2)n(C)c1=O valueunit=nM comparisonsymbol=> measurement=10000
compound=C#CCn1c(=O)c2c(nc3n2CCCN3c2cccc(Br)c2)n(C)c1=O valueunit=nM comparisonsymbol=> measurement=10000
